Give measured pIC50 for each item. Keep answers brief.
# Protocol: Displacement of [3H]haloperidol from rat striatum dopamine receptor
pIC50 (log units): -log10 of the concentration in mol/L.

Read the entry Br.CC(C)(C)[C@]1(O)CCN2C[C@H]3Cc4ccccc4Cc4cccc(c43)[C@@H]2C1 and write its reported pIC50. 9.10

Provide only the value of recorded pIC50 for CC(C)(C)[C@]1(O)CCN2C[C@H]3Cc4ccccc4Cc4cccc(c43)[C@@H]2C1.Cl (racemic) 8.77
